Hey, just so you know, these numbers are from PubChem BioAssay (NCI).

System: KM12 colon
Assay: NCI tumour cell line growth inhibition, 48 h
property_name: TGI

Examples with their reported TGI follow.
| compound | TGI |
| --- | --- |
| CCN(CC)CCNc1ccc2ncn3c4cc(OC)c(OC)c(=O)c4c(O)c1c23 | 23.2 µM |
| CCOC(=O)[C@@H]1ON2O[C@@H](OC3CCCC3(c3ccccc3)c3ccccc3)C[C@H]3OC(=O)[C@@H]1C32 (stereo not given in full) | 29 µM |
| Nc1ccccc1SC1CC(=O)N(c2ccc(Cl)c(Cl)c2)C1=O (stereo not given) | > 100 µM |
| COc1ccc(N=NC(=Nc2ccc(F)cc2)c2ccc(N(CCC#N)CCC#N)cc2)cc1 | 44.9 µM |

# context switch: different compound, same TGI
response.value for O=C(c1ccco1)C1CC(c2c(O)ccc3ccccc23)=NN1 (stereo not given) (field: TGI) = 24.3 µM
